system: HepG2; assay: cell viability relative to DMSO; higher = less toxic; settings: 72 h; 10000 nM
attributeMeasured: cell viability (%)
API: value field is a number in %; no unit string.

>>> measurednumber("CC[C@@H]1/C=C(\\C)C[C@H](C)C[C@H](OC)[C@H]2O[C@@](O)(C(=O)C(=O)N3CCCC[C@H]3C(=O)O[C@H](/C(C)=C/[C@@H]3CC[C@@H](O)[C@H](OC)C3)[C@H](C)[C@@H](O)CC1=O)[C@H](C)C[C@@H]2OC")
104

Identify measured cell viability associated with Cn1c(COP(=O)(NCCBr)NCCBr)cnc1[N+](=O)[O-]
81.3

Write down cell viability measured for item O=C(NCc1ccc(Oc2ccccc2)cc1)c1nc(-c2cc(Br)c(O)c(Br)c2)no1
76.1

----------
test system: U2OS; experiment: drug sensitivity score (DSS) for viability; higher = more toxic; extreme values may be limits of the assay; details: 72 h
In this section, each of the compounds is paired with its reported drug sensitivity score.
Just the number, please, no unit attached.

See these solved cases before continuing.
>>> measurednumber("NC(=O)C(c1ccccc1)(c1ccc(F)cc1)c1ccc(F)cc1")
0
>>> measurednumber("CC(O)(CS(=O)(=O)c1ccc(F)cc1)C(=O)Nc1ccc(C#N)c(C(F)(F)F)c1 (configuration not stated) [bicalutamide]")
0
>>> measurednumber("Cc1ccc(-n2nc(C(C)(C)C)cc2NC(=O)Nc2ccc(OCCN3CCOCC3)c3ccccc23)cc1")
0
>>> measurednumber("CCC1(C)CC(=O)NC(=O)C1 [bemegride]")
0
>>> measurednumber("Cc1cccc(C(C)c2c[nH]cn2)c1C (configuration not stated)")
0
>>> measurednumber("CCc1c2c(nc3ccc(OC(=O)N4CCC(N5CCCCC5)CC4)cc13)-c1cc3c(c(=O)n1C2)COC(=O)[C@]3(O)CC")
3.8
>>> measurednumber("COc1cc(N)c(Cl)cc1C(=O)OCCN1CCCCC1")
0
>>> measurednumber("CC[C@@]1(O)C(=O)OCc2c1cc1n(c2=O)Cc2cc3c(CN(C)C)c(O)ccc3nc2-1")
10.2
>>> measurednumber("CCN(CC)C(=O)/C(C#N)=C/c1cc(O)c(O)c([N+](=O)[O-])c1")
0
>>> measurednumber("CC[C@H](CO)Nc1nc(NCc2ccccc2)c2ncn(C(C)C)c2n1")
0

State its drug sensitivity score: N#C/C(=C\c1ccc(O)c(O)c1)C(=O)NCc1ccccc1
0

Item CCOC(=O)O[C@]1(C(=O)OCCl)CC[C@H]2[C@@H]3CCC4=CC(=O)C=C[C@]4(C)[C@H]3[C@@H](O)C[C@@]21C : provide drug sensitivity score
0

Using the record for O=C(O)c1ccccc1C(=O)Nc1ccc(-c2ccccc2)cc1 , state its measured drug sensitivity score.
0

Give me measured drug sensitivity score, please, for this compound: O=C(O)C[C@H]1CC[C@H](c2ccc(NC(=O)c3nnc(Nc4ccc(F)c(F)c4)o3)cc2)CC1
0

Report drug sensitivity score, nothing else, for this compound: O=C(CCc1ccc(O)cc1)c1c(O)cc(O)cc1O[C@@H]1O[C@H](CO)[C@@H](O)[C@H](O)[C@H]1O
0

Recall and state the measured drug sensitivity score for COC(=O)[C@H](c1ccccc1Cl)N1CCc2sccc2C1 .
0

Give drug sensitivity score for CCn1c(=O)c(-c2ccc(Cl)cc2Cl)cc2cnc(Nc3ccc(N4CCNCC4)c(F)c3)nc21
4.5

----------
tested on: Calu-3; assay: cell viability relative to DMSO; higher = less toxic; conditions: 72 h; 10 nM
attributeMeasured: cell viability (%)
Lab book: enter the figure in %, no units written.

Assign cell viability to the following record: C[C@@H]1CC[C@@]2(OC1)O[C@H]1C[C@H]3[C@@H]4CC=C5C[C@@H](O[C@@H]6O[C@H](CO)[C@@H](O[C@@H]7O[C@@H](C)[C@H](O)[C@@H](O)[C@H]7O)[C@H](O)[C@H]6O[C@@H]6O[C@@H](C)[C@H](O)[C@@H](O)[C@H]6O)CC[C@]5(C)[C@H]4CC[C@]3(C)[C@H]1[C@@H]2C [dioscin]
89.7

Supply measured cell viability of CC(C)Oc1ccc(-c2nc(-c3cccc4c3CC[C@H]4NCCC(=O)O)no2)cc1C#N [RP-001] in your reply.
99.8

# return recorded cell viability for entry COc1ccsc1CNCC[C@@]1(c2ccccn2)CCOC2(CCCC2)C1 [TRV130]
96.9

Supply measured cell viability of CN1C[C@H](CNC(=O)OCc2ccccc2)C[C@@H]2c3cccc4c3c(cn4C)C[C@H]21 [metergoline] in your reply.
92.2

Quote cell viability reported for Cc1cccc(/C=N/Nc2cc(N3CCOCC3)n3nc(-c4ccncc4)cc3n2)c1 [APY0201] please.
101

# return recorded cell viability for input COc1cc(N)c(Cl)cc1C(=O)OCCN1CCCCC1
108

Check the records and state cell viability for C=CC[N@@+]12CC[C@@]34c5ccccc5N5/C=C6/[C@H]7C[C@H]8[C@@]9(CC[N@@+]8(CC=C)C/C7=C/CO)c7ccccc7N(/C=C(/[C@@H](C[C@@H]31)/C(=C\CO)C2)[C@H]54)[C@@H]69 [alcuronium]
103

Please list cell viability recorded for the molecule C[C@]12CC[C@@H]3c4ccc(O)cc4CC[C@H]3[C@@H]1CC[C@@H]2OC(=O)CCC1CCCC1 [estradiol-cypionate]
90.4

// Input: O=C(O)c1ccccc1C(=O)Nc1ccc(-c2ccccc2)cc1 [kartogenin] . Output its cell viability only.
101

For the molecule O=C(NCc1ccc(F)cc1)N1CCN2C(=O)OC(c3ccccc3)(c3ccccc3)[C@@H]2C1 (racemic) [SHA-68] , report cell viability.
110

Give reported cell viability value for N[C@@H](CC(=O)N1CCn2c(nnc2C(F)(F)F)C1)Cc1cc(F)c(F)cc1F [sitagliptin]
100

Please supply the value of reported cell viability for the item O=C(NCC(=O)N1CCCCC1)Nc1ccc2nnsc2c1 [UNC2327]
97.5

Note down cell viability recorded for CCc1cccc2c3c([nH]c12)C(CC)(CC(=O)O)OCC3 (stereo not given) [etodolac]
107

Tell me its cell viability given c1ccc([C@H]2CNCc3ccccc32)cc1 [4-phenyl-1,2,3,4-tetrahydroisoquinoline] as the entry.
109

Give recorded cell viability. O=C1NN(C(=O)Nc2ccc(Br)cc2)[C@@H](c2ccccc2)[C@@H]1c1ccccc1
90.4

----------
system: HepG2; experiment: cell viability relative to DMSO; higher = less toxic; conditions: 72 h; 1 nM
Measured cell viability values are reported for all entries that follow.
# unit: % | format: bare number

>>> measurednumber("O=S(=O)(NCCNC/C=C/c1ccc(Br)cc1)c1cccc2cnccc12")
95.5
>>> measurednumber("CCCNC(C)(C)COC(=O)c1ccccc1")
86.3
>>> measurednumber("N[C@@H](CC(=O)N1CCn2c(nnc2C(F)(F)F)C1)Cc1cc(F)c(F)cc1F")
89.2
>>> measurednumber("O=C(/C=C/c1ccc(O)c(O)c1)OCCc1ccccc1")
92
>>> measurednumber("O=C(O)Cc1ccc(OCc2ccccc2)c(Cl)c1")
98.5

Please indicate cell viability recorded for CO[C@H]1CC=C2CCN3CCC4=C(CC(=O)OC4)[C@]23C1
99.9

Fill in reported cell viability for this entry: N#CC1(c2ccc(NC(=O)c3cccnc3NCc3ccncc3)cc2)CCCC1
103

Report cell viability for O=C(Nc1cnc(Cl)nc1)c1ccc(F)c(F)c1
96.5

Query cell viability for O=c1c(-c2ccc(O)cc2)coc2cc(O)cc(O)c12
95.2

Provide only the value of recorded cell viability for COc1cc(N2CCC(N)CC2)ccc1Nc1ncc(Cl)c(-c2c[nH]c3ccccc23)n1
102

----------
test system: Vero E6; assay: drug sensitivity score (DSS) for viability; higher = more toxic; extreme values may be limits of the assay; settings: 72 h
Measured drug sensitivity score accompanies every entry in the list below.
Reply: number alone, nothing else.

>>> measurednumber("CCOCOC[C@H](C[C@H](C)C(=O)NO)NC(=O)c1ccc(Oc2ccccc2)cc1")
0

Provide measured drug sensitivity score value, entry: CS[C@H]1SC[C@H]2C(=O)N(C)[C@@H](C(C)C)C(=O)OC[C@@H](NC(=O)c3cnc4ccccc4n3)C(=O)N[C@@H](C)C(=O)N(C)[C@@H]1C(=O)N(C)[C@@H](C(C)C)C(=O)OC[C@@H](NC(=O)c1cnc3ccccc3n1)C(=O)N[C@@H](C)C(=O)N2C
31.7

Let me know recorded drug sensitivity score for CO[C@@H]1[C@@H](O[C@@H]2O[C@H](C)[C@@H](O[C@H]3C[C@@](C)(O)[C@@H](OC(=O)CC(C)C)[C@H](C)O3)[C@H](N(C)C)[C@H]2O)[C@@H](CC=O)C[C@@H](C)[C@@H](O)/C=C/C=C/C[C@@H](C)OC(=O)C[C@H]1OC(C)=O , thanks.
0

Answer with reported drug sensitivity score of COc1ccc2[nH]c(I)c(CCNC(C)=O)c2c1
0

Please look at this compound and report its drug sensitivity score: COc1ccc(CN2C(=O)C(=O)c3cc(OC(F)(F)F)ccc32)cc1
6.2

Return reported drug sensitivity score. Input compound: Cc1oc(=O)oc1COC(=O)C1=C([C@H]2CCCO2)S[C@@H]2[C@@H]([C@@H](C)O)C(=O)N12
0
